Test system: Leucine-rich repeat serine/threonine-protein kinase 2 (Homo sapiens), Q5S007 [G2019S]
Sequence (Q5S007 whole entry G2019S): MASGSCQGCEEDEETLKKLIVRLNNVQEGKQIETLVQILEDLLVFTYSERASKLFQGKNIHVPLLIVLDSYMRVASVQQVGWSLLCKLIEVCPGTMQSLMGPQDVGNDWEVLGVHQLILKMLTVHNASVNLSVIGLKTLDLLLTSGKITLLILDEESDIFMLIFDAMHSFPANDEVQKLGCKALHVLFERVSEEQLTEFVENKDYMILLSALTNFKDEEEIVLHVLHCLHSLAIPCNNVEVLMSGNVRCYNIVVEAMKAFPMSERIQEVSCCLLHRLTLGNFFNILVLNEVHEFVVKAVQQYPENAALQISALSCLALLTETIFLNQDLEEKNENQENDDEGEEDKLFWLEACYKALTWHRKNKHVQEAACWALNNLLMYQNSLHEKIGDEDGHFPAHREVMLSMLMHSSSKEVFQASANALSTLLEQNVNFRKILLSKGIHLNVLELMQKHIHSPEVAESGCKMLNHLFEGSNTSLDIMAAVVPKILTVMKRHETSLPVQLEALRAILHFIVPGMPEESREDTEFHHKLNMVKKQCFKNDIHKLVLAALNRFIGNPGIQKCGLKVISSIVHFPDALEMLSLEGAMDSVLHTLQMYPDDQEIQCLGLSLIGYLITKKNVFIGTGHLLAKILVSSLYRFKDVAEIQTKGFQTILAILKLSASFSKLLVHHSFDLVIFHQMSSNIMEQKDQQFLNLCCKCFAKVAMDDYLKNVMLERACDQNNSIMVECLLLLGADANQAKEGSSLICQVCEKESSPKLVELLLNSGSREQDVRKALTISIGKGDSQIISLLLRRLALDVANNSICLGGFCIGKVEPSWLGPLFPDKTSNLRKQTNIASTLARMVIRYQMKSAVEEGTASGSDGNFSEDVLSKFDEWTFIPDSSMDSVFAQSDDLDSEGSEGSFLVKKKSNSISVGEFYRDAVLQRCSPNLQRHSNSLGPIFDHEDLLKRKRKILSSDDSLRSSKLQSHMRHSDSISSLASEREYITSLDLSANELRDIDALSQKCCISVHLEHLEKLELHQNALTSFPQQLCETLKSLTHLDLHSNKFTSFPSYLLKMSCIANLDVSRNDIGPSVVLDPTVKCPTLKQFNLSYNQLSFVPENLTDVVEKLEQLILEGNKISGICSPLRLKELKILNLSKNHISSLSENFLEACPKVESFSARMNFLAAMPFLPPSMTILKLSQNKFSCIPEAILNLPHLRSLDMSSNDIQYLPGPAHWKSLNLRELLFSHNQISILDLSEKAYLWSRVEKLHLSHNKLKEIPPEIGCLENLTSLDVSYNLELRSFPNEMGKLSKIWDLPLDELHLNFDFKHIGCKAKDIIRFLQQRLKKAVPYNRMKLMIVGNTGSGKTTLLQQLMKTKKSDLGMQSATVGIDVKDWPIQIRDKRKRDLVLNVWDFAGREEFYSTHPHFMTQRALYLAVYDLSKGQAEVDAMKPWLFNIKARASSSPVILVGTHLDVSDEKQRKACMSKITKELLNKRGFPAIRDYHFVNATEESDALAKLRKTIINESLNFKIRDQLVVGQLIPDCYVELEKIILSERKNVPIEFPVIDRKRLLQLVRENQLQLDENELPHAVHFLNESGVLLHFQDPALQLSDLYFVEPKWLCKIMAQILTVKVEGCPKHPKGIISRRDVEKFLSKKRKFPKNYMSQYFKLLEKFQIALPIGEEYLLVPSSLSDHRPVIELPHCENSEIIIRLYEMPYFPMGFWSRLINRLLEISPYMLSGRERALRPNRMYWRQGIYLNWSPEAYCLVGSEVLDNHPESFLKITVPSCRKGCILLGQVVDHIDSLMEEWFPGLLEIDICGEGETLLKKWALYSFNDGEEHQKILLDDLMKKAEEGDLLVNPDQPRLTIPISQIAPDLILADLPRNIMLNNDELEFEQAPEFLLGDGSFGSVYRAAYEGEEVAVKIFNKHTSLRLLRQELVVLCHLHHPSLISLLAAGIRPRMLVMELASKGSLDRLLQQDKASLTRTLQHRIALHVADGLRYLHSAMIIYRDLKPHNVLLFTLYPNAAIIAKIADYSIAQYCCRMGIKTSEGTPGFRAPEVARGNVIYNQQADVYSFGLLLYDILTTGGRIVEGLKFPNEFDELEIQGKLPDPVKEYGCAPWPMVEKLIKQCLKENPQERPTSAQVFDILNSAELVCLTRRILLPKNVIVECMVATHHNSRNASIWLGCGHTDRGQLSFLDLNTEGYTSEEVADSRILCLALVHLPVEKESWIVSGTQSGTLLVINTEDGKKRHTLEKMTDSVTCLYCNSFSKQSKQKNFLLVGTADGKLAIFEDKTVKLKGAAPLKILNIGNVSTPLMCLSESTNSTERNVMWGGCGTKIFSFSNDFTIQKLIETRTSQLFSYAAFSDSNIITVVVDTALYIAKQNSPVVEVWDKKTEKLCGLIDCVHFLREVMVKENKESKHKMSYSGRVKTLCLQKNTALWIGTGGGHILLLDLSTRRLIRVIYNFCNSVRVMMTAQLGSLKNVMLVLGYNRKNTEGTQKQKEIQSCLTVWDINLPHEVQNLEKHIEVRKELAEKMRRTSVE
Condition label: at 0.1 µM
Listing of recorded inhibition by entry.

Record smiles | Reading unit | inhibition
CCCN1CCC(Oc2cc(Nc3nc(Nc4cccc(F)c4C(N)=O)c4cc[nH]c4n3)c(OC)cc2Cl)CC1 | % | 12.8
COc1ccc(-c2coc3ncnc(N)c23)cc1 | % | 4.35
CS(=O)(=O)CCNCc1nc(-c2ccc3ncnc(Nc4ccc(F)c(Cl)c4)c3c2)cs1 | % | 1.31
CCn1c(-c2nonc2N)nc2c(N3CCCC3)nccc21 | % | 0.77
O=C1NC(=O)C(N2CCc3ccccc32)=C1c1ccc(Cl)cc1 | % | 4.99
CC(=O)Nc1cccc(C#Cc2cncnc2Nc2ccc(OCc3cccc(F)c3)c(Cl)c2)n1 | % | 2.03
COc1cc2ncn(-c3cc(O[C@@H](C)c4ccccc4Cl)c(C(N)=O)s3)c2cc1OC | % | 24
CCn1c(-c2nonc2N)nc2ccncc21 | % | 1.49
Fc1cccc(COc2ccc(Nc3ncnc4cc(-c5ccc[nH]5)sc34)cc2Cl)c1 | % | -1.54
CC(C)=Cc1cccc2c1/C(=N/Nc1ccc(S(N)(=O)=O)cc1)C(=O)N2 | % | 17.7

The values you see were collected from ChEMBL document CHEMBL1961873.
